ENDPOINT_NAME: melting point

• CCc1nc2c(C)cc(C)nc2n1-c1ccc(CCNC(=O)NS(=O)(=O)c2ccncc2)cc1 = 228 to 229 °C

Batch of 4 molecules: report melting point for each.
1. CCOC(=O)C(=O)Nc1sc(C(=O)OCC)c(C)c1[N+](=O)[O-]
2. CCOC(=O)CCCCNc1ccc2c(c1)CCC2
3. Cc1cc(C(N)=O)ncc1C(c1c(F)ccc(F)c1F)S(=O)(=O)CCC(C)(C)C (stereo not given)
4. OC(COc1ccc(Cl)cc1Cl)(COc1ccc(Cl)cc1Cl)Cn1cncn1

["118 to 120 °C", "61 to 63 °C", "143 to 144 °C", "136 °C"]

====

ENDPOINT_NAME: melting point

- O=c1[nH]c2cccc(OCCN3CCc4ccccc4C3)c2[nH]c1=O: > 250 °C
- CCN1C[C@@H](C(=O)OC(C)(C)C)N(C(=O)OCc2ccccc2)C1=O: 97 °C
- CNC(=O)c1sc2cnccc2c1Oc1ccc(CO)cc1: 195 to 196 °C

Batch of 5 molecules: report melting point for each.
1. C=C(C)OC(=O)N1c2nc(C)ccc2NC(=S)C1C (racemic)
2. CCOC(=O)N1CCn2c(nc(-c3ccncn3)cc2=O)C(NC(=O)c2ccccn2)C1 (racemic)
3. O=C(c1cc(-c2ccc(Cl)cc2)c(N2CCOCC2)s1)c1ccc(Cl)cc1Cl
4. Cc1ccc(Cn2cc(C(=O)C(=O)NC3=CC(=O)OC3)c3ccc(F)cc32)cc1
5. O=C(c1ccc(-c2ccc(C(CC3CCOCC3)c3ccc(S(=O)(=O)C4CC4)cc3)[nH]2)nc1)N1CCOCC1 (stereo not given)

["120 to 121 °C", "250 to 252 °C", "110 °C", "218 to 220 °C", "114 to 116 °C"]

Batch of 2 molecules: report melting point for each.
1. COc1ccccc1-n1nc(S(=O)(=O)c2ccc(Cl)cc2)c(C)c(C#N)c1=O
2. OC(=S)c1cccnc1

["175 to 178 °C", "84 to 86 °C"]

Batch of 2 molecules: report melting point for each.
1. CC(C)OCCn1c(C2CCN(CCc3ccc(C(C)(C)C)cc3)CC2)nc2ccccc21
2. CCCCC(F)c1cc(=O)[nH]cn1 (stereo not given)

1. 115 to 117 °C
2. 148 °C

Batch of 3 molecules: report melting point for each.
1. O=C1C2CCCC2=Nc2ccccc2N1Cc1cccc2ccccc12 (stereo not given)
2. C=Cc1ncn2c1[C@@H]1CCCN1C(=O)c1c(Cl)cccc1-2
3. O=C(NCCCCN1CCC(c2ccc3c(c2OCc2ccccc2)CCCC3)CC1)c1ccc(-c2ccc(C(F)(F)F)cc2)cc1

1. 145 to 147 °C
2. 213 to 215 °C
3. 169 to 170 °C

Batch of 5 molecules: report melting point for each.
1. CCOC(=O)c1cnn(-c2ccccc2)c1OC
2. COC(=O)C(Oc1nc(OC)cc(OC)n1)C(C)(OCc1ccccc1)c1ccccc1 (stereo not given)
3. CCC(=O)Oc1cc(OC)cc(OC)c1C(=O)C=Cc1ccc(Cl)cc1
4. NC(=O)c1cc(NCc2cccc(F)c2)c([N+](=O)[O-])cc1[N+](=O)[O-]
5. COc1nc2cc(Cl)c(Cl)cc2nc1NS(=O)(=O)c1cccc(Cl)c1Cl

["67 °C", "115 to 117 °C", "136 °C", "175 to 177 °C", "283 to 285 °C"]

====

ENDPOINT_NAME: melting point

# example entries with known answers
- NC(=O)c1c(Cl)cn2c1CN(S(=O)(=O)c1ccc(-c3ccccn3)s1)CC2: 213 to 214 °C
- COc1cc(CCCC(=O)O)ccc1OCc1nc(-c2ccco2)oc1C: 129 to 130 °C
- COc1ccc2c(c1)CCC(CNC(C)=O)C2 (stereo not given): 96 to 97 °C
- CC(=O)N1CCSc2cccc(C)c2C1: 71 to 73 °C
- CCCN(CCCc1c[nH]c2ccc(OC)cc12)C1COc2c(F)ccc(C(N)=O)c2C1 (stereo not given): 145 to 152 °C
- CC(C)(C)OC(=O)N1CCN(C(=O)c2ccncc2)CC1: 139 to 140 °C

Batch of 4 compounds: report melting point for each.
1. CCCc1c(OCCCOc2ccc(C(=O)CCCCC(=O)O)cc2F)ccc(C(C)=O)c1O
2. NC(=O)C(c1ccccc1)c1ccccn1 (racemic)
3. CC(C)(C)c1cc(S)n2ncnc2n1
4. CC(C)(C)c1ccc(-n2c(CC(=O)O)c(C(=O)O)c3cc(Oc4ccc(C(=O)O)cn4)c(Cl)cc32)cc1

1: 106 to 107 °C; 2: 134 °C; 3: 285 to 286 °C; 4: 223 to 235 °C

====

ENDPOINT_NAME: melting point

# example entries with known answers
• CC(C)(C)OC(=O)c1sc(Nc2ccccc2)c2c1CCc1cnoc1-2 = 148 to 149 °C
• CCS(=O)(=O)N(c1ccc(F)cc1Br)S(=O)(=O)CC = 114 to 116 °C
• CN(C)C(=S)SC(c1ccc(Cl)cc1Cl)C(C(c1ccc(Cl)cc1Cl)N(C)C)[N+](=O)[O-] (stereo not given) = 152 to 154 °C
• O=C(Nc1ccc(C(=O)N2Cc3ccccc3Cc3ccccc32)cc1)c1cc(Cl)ccc1Cl = 203 to 231 °C
• COc1cc(Br)cc2c1OCCC2 = 67 °C

Batch of 4 compounds: report melting point for each.
1. O=[N+]([O-])c1cn2c(n1)OC[C@@H](OCc1ncc(Br)cn1)C2
2. CC(C)NCC(O)COc1ccccc1-n1cccc1 (stereo not given)
3. COc1ccc(Oc2ccc(OC(=O)N3CCC(C)CC3)cc2)cc1
4. CCCc1ccccc1OCCCCCOc1coc(C(=O)OC)cc1=O

["> 290 °C", "80 to 81 °C", "81 to 84 °C", "49 to 50 °C"]

Look up melting point for this compound: O=S(=O)(Nc1ccc(Oc2ccc3ncccc3c2)cc1)c1cccc(C(F)(F)F)c1
142 to 143 °C

====

Residues, ends and D or L forms follow the SMILES beside them. *: point of attachment. Boc = CC(C)(C)OC(=O)*
Please respond with reported melting point for every item in the list.

# example entries with known answers
• CCOC(=O)C(C#N)=Cc1cc(O)c(O)c([N+](=O)[O-])c1 = 205 to 210 °C
• C[C@H](NC1=NS(=O)(=O)c2sc(Cl)cc2N1)c1ccccc1 = 195 to 204 °C
• Cn1c(=O)c2nc(-c3ccc(/C=C/C(=O)O)cc3)[nH]c2n(Cc2cccc(C#N)c2)c1=O = > 300 °C
• CC1(C)CC(SCc2c(F)cccc2F)=NO1 = 77 to 80 °C
• CC1=Nc2c(C)nn(C)c2C2=NCC(C)(C)N12 = 280 to 283 °C
• COC(=O)c1cc(C(C)=O)ccc1OC = 72 to 74 °C
• O=C(O)Cc1cc(C(=O)c2ccccc2)cc(Br)c1O = 132 °C
• CC(=O)NNc1ccc(N(Cc2ccccc2)C(=S)Nc2ccccc2)cc1 = 114 to 117 °C
• COc1ccc(CNc2cc(C(N)=O)c([N+](=O)[O-])cc2[N+](=O)[O-])cc1 = 201 to 203 °C
• CCCCN1CCC(CNC(=O)c2cc(Cl)c(NC)n3ccnc23)CC1 = 148 °C

Batch of 5 molecules: report melting point for each.
1. N#Cc1ccc(Oc2ccccc2[N+](=O)[O-])cc1C#N
2. Cc1oc(-c2ccccc2)nc1COc1cccc(COc2cccc(CC(=O)O)c2)n1
3. O=Cc1cc(F)c(NC(=O)C(F)(F)F)c(F)c1
4. O=C1[C@H]2CCC[C@H]2N(C(=O)CCCCCBr)c2ccccc2N1Cc1ccccc1 (relative stereo)
5. CCOC(=O)c1csc(N2CCSCC2)n1

1: 127 °C; 2: 97 to 98 °C; 3: 122 to 125 °C; 4: 111 to 112 °C; 5: 99 to 100 °C

Batch of 3 molecules: report melting point for each.
1. CCOC(=O)C=Cc1ccc(O)c(Br)c1
2. CC(C)CCCOc1nc(N)c([N+](=O)[O-])cc1Cl
3. COc1cc(OCc2ccccn2)ccc1/C=C/c1cc(/C=C/c2c[nH]c3ncccc23)n[nH]1

["112 to 113 °C", "53 to 54 °C", "219 to 223 °C"]

Batch of 6 molecules: report melting point for each.
1. OC1CSC(Oc2cccnc2-c2nnn[nH]2)C(O)C1O (stereo not given)
2. CCOC(=O)CCc1ccc2cc(O)ccc2n1
3. CN(c1cccc2cc(C3=NCC(CN4CCOCC4)S3)[nH]c12)S(=O)(=O)c1cccs1 (stereo not given)
4. CN(C)C(=Nc1ccccc1N1CCOCC1)N1CCCCC1
5. Oc1ccc(Nc2nc(NCc3ccco3)nc(Oc3ccc(O)cc3)n2)cc1
6. O=C(c1ccccc1)c1ccc([N+](=O)[O-])c(C(=O)O)c1

["170 °C", "126 to 128 °C", "139 to 140 °C", "88 to 90 °C", "80 to 83 °C", "169 °C"]

Batch of 2 molecules: report melting point for each.
1. CC(C)(C)OC(=O)NCC(=O)NC(Cc1ccc(O)cc1)C(=O)NC(CCCCN)C(=O)O (stereo not drawn) (Boc-Gly-Tyr-Lys-OH; configuration not given here)
2. N#Cc1c(N2CCCCC2)cc(-c2ccccc2)c2c1-c1ccccc1C2=O

1. > 200 °C
2. 166 to 168 °C

Batch of 7 molecules: report melting point for each.
1. O=C(Nc1ccc(-c2ncc(-c3ccc(NC(=O)C4CCCCCC4)cc3)[nH]2)cc1)c1c(F)c(F)c(F)c(F)c1F
2. Cc1c(Sc2cccnc2)sc2ccc(Br)cc12
3. O=C1c2cc([N+](=O)[O-])ccc2CC1Br (stereo not given)
4. Nc1ccc(S(=O)(=O)Nc2cc(N)nc(S)n2)cc1
5. Cc1cc(NS(=O)(=O)c2ccccc2)cnc1CCCC(=O)O
6. Cc1cc(C(=O)Nc2cc(Oc3ccc4nc(NC(=O)C5CC5)cn4n3)ccc2F)n(C)n1
7. CC(C)(C(=O)Nc1cccc(Cl)c1)N1OCC(CI)=C(c2ccccc2)C1=O

1: 300 to 302 °C; 2: 86 to 87 °C; 3: 102 to 105 °C; 4: 232 to 234 °C; 5: 169 to 179 °C; 6: 237 °C; 7: 135 to 137 °C

Batch of 6 molecules: report melting point for each.
1. O=c1[nH]c2cc(Cl)c(Cl)cc2n1CCCN1CCN(C(c2ccccc2)c2ccccc2)CC1
2. C#CCn1cccc1-c1nc(-c2ccc(OC)cc2)c(-c2ccc(OC)cc2)s1
3. CCCCCn1c(=O)c2cc(C(=O)OCC)cn2c2ccccc21
4. COc1ccccc1N1CCN(CCCOc2ccc(-c3cn4cccnc4n3)cc2)CC1
5. COc1cccc(Nc2n[nH]c(N)c2C#N)c1
6. COC(=O)c1csc(-c2cc3ccccc3n2C)n1

1: 214 °C; 2: 102 to 104 °C; 3: 151 to 152 °C; 4: 156 to 158 °C; 5: 177 to 180 °C; 6: 124 to 127 °C

Look up melting point for this molecule: Nc1cc(N2CCCC2)c(F)cc1[N+](=O)[O-]
115 to 116 °C
